Organism: Homo sapiens
test_details: Inhibition of heparin-induced alexa red-labelled tau K18PL mutant aggregation after 6 hrs by thioflavin-T fluorescence assay relative to control
Dear colleague, classification is by Imax, with ranges listed here: low (below 70%), middle (70% to below 80%), high (80% or more)

INSERT INTO results (smiles_text, discrete_label) VALUES
  ('CC(C)NC(=O)c1nn(-c2ccc(OC(F)(F)F)cc2)c(=O)c2c(N)scc12', 'low'),
  ('Cc1nn(-c2cccnc2)c(=O)c2c(N)scc12', 'middle'),
  ('Cc1n[nH]c(=O)c2c(N)scc12', 'high'),
  ('CC(C)n1nc(-c2ccccc2)c2csc(N)c2c1=O', 'high'),
  ('CCOC(=O)c1nn(-c2ccc(C(C)C)cc2)c(=O)c2c(N)scc12', 'low'),
  ('CCOC(=O)c1nn(-c2ccc(Cl)cc2)c(=O)c2c(NC)scc12', 'low'),
  ('Nc1scc2c(C(=O)O)nn(-c3ccc(C(F)(F)F)cc3)c(=O)c12', 'high'),
  ('CCOC(=O)c1nn(-c2ccccc2Cl)c(=O)c2c(N)scc12', 'middle');
